Each item that follows carries a reported IC50.
testedSystem: Lysyl oxidase homolog 3 (Homo sapiens, UniProt P58215)
Sequence (P58215 whole entry): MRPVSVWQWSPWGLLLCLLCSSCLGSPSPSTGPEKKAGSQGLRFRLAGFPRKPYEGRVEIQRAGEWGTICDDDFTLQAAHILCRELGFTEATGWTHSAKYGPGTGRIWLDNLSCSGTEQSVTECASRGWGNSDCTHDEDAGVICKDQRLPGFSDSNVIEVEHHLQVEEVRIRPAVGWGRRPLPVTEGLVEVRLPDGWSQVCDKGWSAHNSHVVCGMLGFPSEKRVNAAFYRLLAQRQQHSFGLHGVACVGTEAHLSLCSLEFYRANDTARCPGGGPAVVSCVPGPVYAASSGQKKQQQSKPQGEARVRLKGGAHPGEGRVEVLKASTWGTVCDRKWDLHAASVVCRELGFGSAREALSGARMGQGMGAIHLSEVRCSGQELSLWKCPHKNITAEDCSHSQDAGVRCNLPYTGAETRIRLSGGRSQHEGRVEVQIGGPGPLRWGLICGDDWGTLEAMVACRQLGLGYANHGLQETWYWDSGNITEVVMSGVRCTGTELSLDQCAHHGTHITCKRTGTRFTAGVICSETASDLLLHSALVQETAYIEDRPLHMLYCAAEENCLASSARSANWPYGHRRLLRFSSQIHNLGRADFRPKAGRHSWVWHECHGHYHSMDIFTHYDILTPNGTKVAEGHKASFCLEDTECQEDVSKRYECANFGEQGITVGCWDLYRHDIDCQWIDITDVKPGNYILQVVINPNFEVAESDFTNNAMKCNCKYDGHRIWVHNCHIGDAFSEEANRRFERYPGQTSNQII
assayName: Inhibition of recombinant human LOXL3 expressed in CHO cells using diaminopentane as substrate preincubated for 30 mins followed by substrate addition measured after 1 hr by fluorimetric method

# input Which IC50 value belongs to `CCOC(=O)c1sc(N/N=C2\C(=O)N(c3ccccc3)N=C2N)c(C(=O)OCC)c1C` ?
# output > 100 µM

# input Fill in the blank: the reported IC50 of `Cc1cc(C)c2c(=O)n(-c3ccccc3)[nH]c2n1` is ____.
# output > 100 µM

# input I would be grateful if you could share the reported IC50 for `CC(C)(C)C1=NN(c2ccccc2)C(=O)C1` .
# output > 100 µM

Cited source for all entries: ChEMBL document CHEMBL4229522
